Where do these numbers come from? They come from patent US20150111251A1.

# maps each entry to its TNFα Neutralization Assay IC50 nM (L929 cells)
target: Recombinant Human TNF-α/TNFSF1A (human, UniProt P01375 77-233); assay: cell-based or functional assay
Sequence (P01375 77-233 limits assumed): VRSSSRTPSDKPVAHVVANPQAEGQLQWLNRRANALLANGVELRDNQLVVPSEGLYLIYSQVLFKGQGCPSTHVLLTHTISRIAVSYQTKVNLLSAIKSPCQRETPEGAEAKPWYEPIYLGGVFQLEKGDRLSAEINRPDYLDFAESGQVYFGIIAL
measure: TNFα Neutralization Assay IC50 nM (L929 cells)

>  <binder>
AB373 (antibody, V domains shown, Full-length humanized antibody made in HEK 293-6E; also called hMAK199VH.2/hMAK199VL.2a) VH: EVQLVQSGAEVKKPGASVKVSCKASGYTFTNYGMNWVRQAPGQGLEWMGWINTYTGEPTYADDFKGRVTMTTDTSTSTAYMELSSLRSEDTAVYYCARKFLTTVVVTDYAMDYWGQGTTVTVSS VL: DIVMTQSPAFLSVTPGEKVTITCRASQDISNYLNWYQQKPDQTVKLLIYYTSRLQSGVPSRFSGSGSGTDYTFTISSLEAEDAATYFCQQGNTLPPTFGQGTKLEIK

>  <reported>
> 20 nM

$$$$
>  <binder>
AB380 (antibody, V domains shown, Full-length humanized antibody made in HEK 293-6E; also called hMAK199VH.2a/hMAK199VL.2b) VH: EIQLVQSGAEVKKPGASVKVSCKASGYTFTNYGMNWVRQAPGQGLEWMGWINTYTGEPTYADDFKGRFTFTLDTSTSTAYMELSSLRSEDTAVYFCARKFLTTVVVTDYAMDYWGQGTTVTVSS VL: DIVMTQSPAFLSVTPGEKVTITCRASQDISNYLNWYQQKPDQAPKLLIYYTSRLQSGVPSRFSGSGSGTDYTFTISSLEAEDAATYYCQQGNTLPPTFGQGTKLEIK

>  <reported>
> 20 nM

$$$$
>  <binder>
AB369 (antibody, V domains shown, Full-length humanized antibody made in HEK 293-6E; also called hMAK199VH.2/hMAK199VL.1) VH: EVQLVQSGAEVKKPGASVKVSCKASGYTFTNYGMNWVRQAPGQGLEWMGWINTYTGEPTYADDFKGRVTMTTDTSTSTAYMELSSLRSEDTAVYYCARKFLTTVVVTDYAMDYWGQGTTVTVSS VL: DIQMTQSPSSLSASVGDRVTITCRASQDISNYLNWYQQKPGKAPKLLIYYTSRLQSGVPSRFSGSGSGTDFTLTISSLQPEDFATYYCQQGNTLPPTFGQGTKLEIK

>  <reported>
> 20 nM

$$$$
